# Test system: DU-145 prostate
# Measurement protocol: NCI-60 one-dose screen, 48 h
# Condition notes: 10 µM unless noted
The panel holds about 83,000 compounds, 20% with a hit somewhere; the sample as a whole holds those more often. Calls of active or inactive are those of the source. How the source made its calls: active means growth percent below 10; inactive means the rest.
Can you answer with just one of these options? yes (active), no (inactive)

# count of solved cases: 3
Cc1ccc2c(c1)C(=O)/C(=C/c1cccc(OCC(=O)c3ccc(Cl)cc3)c1)CS2; no
CC[C@]1(O)C[C@@H]2CN(CCc3c([nH]c4ccccc34)[C@@](C(=O)OC)(c3cc4c(cc3OC)N(C)[C@H]3[C@@](O)(C(N)=O)[C@H](O)[C@]5(CC)[C@@H]6C[C@@H]6CN6CC[C@]43[C@@H]65)C2)C1; yes
O=C1/C(=C/c2ccc(Cl)cc2)SC(=S)N1CCc1ccc(O)cc1; no

From here, focus on the item given below.
input: Recorded call for `O=c1nc2oc3ccc4ccccc4c3cc-2s1` ?
output: no

Data provenance is PubChem BioAssay (NCI).
